From: patent US20170121315A1

- Test system: rat hepatocytes
- protocol-notes: Hepatocyte assay for determination of metabolic stability
- Assay type: in vitro ADME
- details: after incubation with rat hepatocytes
# binarize Fmax (maximum possible bioavailability after oral administration, well-stirred): threshold 80% inclusive, high side condition met, low side condition not met

compound	label
O=C(C[C@H](CCn1nnc2ccccc2c1=O)C(=O)O)c1noc2cc(OCC3CCOCC3)ccc12 (single isomer, unassigned; enantiomer 2) [Example 135]	condition not met
O=C(C[C@@H](CCn1nnc2ccccc2c1=O)C(=O)O)c1noc2cc(OCC3CCOCC3)ccc12 (single isomer, unassigned; enantiomer 1) [Example 134]	condition not met
O=C(CC(CCn1nnc2ccccc2c1=O)C(=O)O)c1noc2cc(OCc3ccc(F)cc3)ccc12 (racemic) [Example 136]	condition met
O=C(CC(CCn1nnc2ccc(C(F)(F)F)cc2c1=O)C(=O)O)c1cc2ccc(OCC3CC3)cc2s1 (single isomer, unassigned; enantiomer 2) [Example 130]	condition not met
O=C(CC(CCn1nnc2ccc(C(F)(F)F)cc2c1=O)C(=O)O)c1noc2cc(OCC3CCOCC3)ccc12 (racemic) [Example 155]	condition not met

====

// pIC50 lookup, one value per entry
- target-under-test: MMP-7 (Homo sapiens, UniProt P09237)
- Sequence (P09237 95-267): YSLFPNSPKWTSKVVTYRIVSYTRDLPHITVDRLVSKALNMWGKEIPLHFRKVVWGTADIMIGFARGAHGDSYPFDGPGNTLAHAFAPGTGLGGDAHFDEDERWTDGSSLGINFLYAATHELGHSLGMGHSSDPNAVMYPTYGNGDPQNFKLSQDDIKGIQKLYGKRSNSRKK
pIC50: −log10 of the molar value.
readout-label: pIC50

                                   compound  readout_label  recorded_value
0  O=C(CC(CCn1nnc2ccccc2c1=O)C(=O)O)c1coc2cc(OCCC3CCCC3)ccc12 (racemic)          pIC50          < 4.40
1  CCCCCCCOc1ccc2c(C(=O)CC(CCn3nnc4ccccc4c3=O)C(=O)O)coc2c1 (racemic)          pIC50          < 4.40
2  O=C(CC(CCn1nnc2ccccc2c1=O)C(=O)O)c1cc2cc(OCCCC(F)(F)F)ccc2o1 (single isomer, unassigned; enantiomer 2)          pIC50          < 4.40

====

// IC50 lookup, one value per entry
Target sequence: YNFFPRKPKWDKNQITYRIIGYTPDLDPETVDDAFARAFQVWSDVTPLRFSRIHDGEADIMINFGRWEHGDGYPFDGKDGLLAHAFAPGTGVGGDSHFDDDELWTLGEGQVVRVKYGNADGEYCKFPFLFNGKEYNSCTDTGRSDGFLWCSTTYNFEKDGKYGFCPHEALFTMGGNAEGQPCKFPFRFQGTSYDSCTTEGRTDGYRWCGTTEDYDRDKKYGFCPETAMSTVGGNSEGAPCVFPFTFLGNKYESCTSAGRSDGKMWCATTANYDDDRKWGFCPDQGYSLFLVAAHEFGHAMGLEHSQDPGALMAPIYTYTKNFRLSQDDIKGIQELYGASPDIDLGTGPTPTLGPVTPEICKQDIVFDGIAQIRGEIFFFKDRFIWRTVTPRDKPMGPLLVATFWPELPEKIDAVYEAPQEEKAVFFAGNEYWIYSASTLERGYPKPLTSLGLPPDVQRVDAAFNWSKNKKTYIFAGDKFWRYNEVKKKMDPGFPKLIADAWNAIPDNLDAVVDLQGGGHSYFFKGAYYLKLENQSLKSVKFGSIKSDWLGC
readout-label: IC50 (nM)

>>> df
                                   molecule  result_units  recorded_value
0  NC(=O)c1cccc(COc2ccc3oc(C(=O)CC(CCn4nnc5ccccc5c4=O)C(=O)O)cc3c2)c1 (single isomer, unassigned; (+))            nM             490
1  O=C(CC(CCn1nnc2ccccc2c1=O)C(=O)O)c1cc2cc(OCCc3ccccc3)ccc2o1 (single isomer, unassigned; (+))            nM            1900
2  O=C(CC(CCn1nnc2ccccc2c1=O)C(=O)O)c1cc2ccc(OCCc3ccccc3)cc2s1 (racemic)            nM              83
